The reported measurements were obtained from the supplement of paper PMC9170038.

Known apparent KD of MS2 coat protein of a selection of sequences
- Test system: MS2 coat protein
- Protocol Text: apparent KD of MS2 coat protein; designed switch direction (-1 OFF switch, 1 ON switch): 1; higher = weaker reporter binding
- Measurement Context: input ligand: none
All answers are understood in µM, so give the number only.

As a guide, the following entries are already answered.
{"Sequence": "CUCCGGAAGCGAGGAUAUGCAGAGGAUCACCCUGCAGAAGGCGCAAAAGCGAGGAUAUGCAGAGGAUCACCCUGCAGAAGGCGC [pwkr ssNG DX.33] (Eterna round: R96, puzzle: Same State NG 1)", "apparent KD of MS2 coat protein / µM": 0.0399}
{"Sequence": "GUGGUCAGACAUGAGGAUCACCCAUGUGGAAUAAAUAAGGGACAGGAUAUGGAAUAUAGGAUAUACCAGAAGGGUUGGUUGGUG (Eterna round: R96, puzzle: Same State NG 3)", "apparent KD of MS2 coat protein / µM": 0.082}
{"Sequence": "GGGAGAGGUACAGGAUAUGGUGAGGAUCACCCACUAGAAGGGUGCACAUGUGAAUCGGACAUGAGGAUCACCCAUGUUGGGCGU (Eterna round: R96, puzzle: Same State NG 1)", "apparent KD of MS2 coat protein / µM": 0.424}
{"Sequence": "AGAUCAUGACGAGGAUAUGGAACAUGAGGAUCACCCAUGUAUGUUCCAUAACGCGAACGACGAAUCCAGAAGGCGUCGUGAUCA [Mat - Same State NG 2 - JL mod - D42] (Eterna round: R96, puzzle: Same State NG 2)", "apparent KD of MS2 coat protein / µM": 0.0263}

Q) Give recorded apparent KD of MS2 coat protein with MS2 coat protein for the following sequence: UAAGGACAUGAGGAUCACCCAUGUGCUUCAUAUGGAGAAACUCAGGAUAUGCUGAGGAUCACCCAGCAGAAGGGAGAUCCGAGG (Eterna round: R96, puzzle: Same State NG 3)
A) 0.281
